test target: Solute carrier organic anion transporter family member 1B3 (Homo sapiens, UniProt Q9NPD5)
Sequence (Q9NPD5 whole entry): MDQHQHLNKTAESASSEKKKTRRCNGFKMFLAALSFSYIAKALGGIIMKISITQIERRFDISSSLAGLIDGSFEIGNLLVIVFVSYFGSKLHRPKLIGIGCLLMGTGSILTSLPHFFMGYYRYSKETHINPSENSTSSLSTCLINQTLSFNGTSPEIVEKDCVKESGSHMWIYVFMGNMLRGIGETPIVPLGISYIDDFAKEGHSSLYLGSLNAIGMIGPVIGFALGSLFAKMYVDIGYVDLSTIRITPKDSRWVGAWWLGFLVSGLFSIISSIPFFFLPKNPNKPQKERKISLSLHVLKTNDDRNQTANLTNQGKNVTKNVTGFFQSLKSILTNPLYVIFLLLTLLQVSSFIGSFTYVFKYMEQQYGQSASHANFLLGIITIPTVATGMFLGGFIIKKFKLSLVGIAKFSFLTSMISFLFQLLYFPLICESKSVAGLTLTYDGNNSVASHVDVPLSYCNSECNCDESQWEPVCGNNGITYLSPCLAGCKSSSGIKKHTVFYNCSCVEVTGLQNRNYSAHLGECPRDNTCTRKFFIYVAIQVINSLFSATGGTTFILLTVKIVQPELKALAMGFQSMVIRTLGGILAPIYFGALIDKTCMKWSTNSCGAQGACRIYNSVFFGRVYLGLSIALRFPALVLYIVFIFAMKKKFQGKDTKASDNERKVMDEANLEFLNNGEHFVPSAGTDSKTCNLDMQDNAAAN
protocol conditions: chinese hamster, cho, 10 µM
# residual activity per record follows
All answers are understood in %, so give the number only.

Worked cases, residual activity given:
{"compound": "CO[C@@H]1[C@@H](OC(N)=O)[C@@H](O)[C@H](Oc2ccc3c([O-])c(NC(=O)c4ccc(O)c(CC=C(C)C)c4)c(=O)oc3c2C)OC1(C)C.[Na+] [NOVOBIOCIN SODIUM]", "test target": "Solute carrier organic anion transporter family member 1B3 (Homo sapiens, UniProt Q9NPD5)", "measured endpoint": "residual activity", "experimental result": 47.15}
{"compound": "C[C@@]12C[C@@]3(O)O[C@@H](O1)[C@]1(COC(=O)c4ccccc4)[C@H]3C[C@@]12O[C@@H]1O[C@H](CO)[C@@H](O)[C@H](O)[C@H]1O [PAEONIFLORIN]", "test target": "Solute carrier organic anion transporter family member 1B3 (Homo sapiens, UniProt Q9NPD5)", "measured endpoint": "residual activity", "experimental result": 101.8}
{"compound": "CC(C)=CCC[C@]1(C)C=Cc2c(O)c3c(c(CC=C(C)C)c2O1)O[C@]12C(C[C@@H]4C[C@H]1C(C)(C)O[C@@]2(C/C=C(/C)C(=O)O)C4O)C3=O (stereo not given in full)", "test target": "Solute carrier organic anion transporter family member 1B3 (Homo sapiens, UniProt Q9NPD5)", "measured endpoint": "residual activity", "experimental result": 4.414}
{"compound": "CNC(=O)Oc1ccc2c(c1)[C@]1(C)CCN(C)[C@@H]1N2C [PHYSOSTIGMINE]", "test target": "Solute carrier organic anion transporter family member 1B3 (Homo sapiens, UniProt Q9NPD5)", "measured endpoint": "residual activity", "experimental result": 80.76}
{"compound": "CC(=O)NCCc1c[nH]c2ccc(O)cc12 [ACETYLSEROTONIN]", "test target": "Solute carrier organic anion transporter family member 1B3 (Homo sapiens, UniProt Q9NPD5)", "measured endpoint": "residual activity", "experimental result": 91.29}
{"compound": "CCOC(=O)[N-]c1cn(N2CCOCC2)n[o+]1 [MOLSIDOMINE]", "test target": "Solute carrier organic anion transporter family member 1B3 (Homo sapiens, UniProt Q9NPD5)", "measured endpoint": "residual activity", "experimental result": 97.14}

Enquiry: Need residual activity, item COc1ccc(-c2coc3c(OC)c(OC)cc(O)c3c2=O)cc1 [ISOTECTORIGENIN, 7-METHYL ETHER]
Return: 105

----------
# pKi per record follows
test target: Solute carrier organic anion transporter family member 1B1 (Homo sapiens, UniProt Q9Y6L6)
Sequence (Q9Y6L6 whole entry): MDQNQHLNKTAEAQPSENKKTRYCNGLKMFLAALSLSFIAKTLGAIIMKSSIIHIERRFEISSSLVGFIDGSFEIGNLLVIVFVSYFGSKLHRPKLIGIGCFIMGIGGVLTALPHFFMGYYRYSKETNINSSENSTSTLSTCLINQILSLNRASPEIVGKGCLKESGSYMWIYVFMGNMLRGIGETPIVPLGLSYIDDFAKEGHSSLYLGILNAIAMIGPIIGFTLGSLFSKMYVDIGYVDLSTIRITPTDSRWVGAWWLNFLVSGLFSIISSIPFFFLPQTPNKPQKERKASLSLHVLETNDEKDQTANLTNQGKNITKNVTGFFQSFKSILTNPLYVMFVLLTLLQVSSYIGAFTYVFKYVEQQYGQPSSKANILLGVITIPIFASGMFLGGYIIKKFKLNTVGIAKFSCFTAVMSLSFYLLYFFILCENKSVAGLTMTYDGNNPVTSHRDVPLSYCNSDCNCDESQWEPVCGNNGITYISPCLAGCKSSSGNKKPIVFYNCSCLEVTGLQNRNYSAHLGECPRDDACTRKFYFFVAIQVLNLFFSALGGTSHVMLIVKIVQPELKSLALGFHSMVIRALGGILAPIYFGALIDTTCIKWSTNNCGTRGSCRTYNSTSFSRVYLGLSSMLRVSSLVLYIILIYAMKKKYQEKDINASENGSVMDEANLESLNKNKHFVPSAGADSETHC
As a rule, pKi stands for the negative log10 of the concentration, concentration in M.

Worked cases, pKi given:
{"molecule": "O=C(O)c1cc2ccccc2c(Cc2c(O)c(C(=O)O)cc3ccccc23)c1O.OCCOCCN1CCN(C(c2ccccc2)c2ccc(Cl)cc2)CC1 [HYDROXYZINE PAMOATE]", "pKi": 6.35}
{"molecule": "CC(C)=CCCC1(C)C=Cc2c(O)c3c(c(CC=C(C)C)c2O1)OC12C(=CCCC1C(C)(C)O[C@@]2(C/C=C(\\C)C(=O)O)C(=O)O)C3=O (stereo not given in full)", "pKi": 6.19}

Enquiry: Need pKi, item CC1(C)[C@@H](O)C=C[C@]2(C)[C@H]3CC[C@@]4(C)[C@H](c5ccoc5)OC(=O)[C@H]5O[C@]54[C@]3(C)C(=O)C[C@@H]12
Return: 5.88

Enquiry: Input COC(=O)C[C@H]1C2(C)CC34OC5(C)O[C@@]6([C@H](OC(C)=O)C(OC(C)=O)[C@]7(C)C(/C(=C(/O)C(C)C)C(=O)O[C@H]7c7ccoc7)[C@@]6(O5)[C@H](OC(C)=O)[C@@]3(O)C2OC(=O)C(C)C)[C@]14C (stereo not given in full)
Return: 6.42

Enquiry: Input CC(=O)OC/C=C(C)/C=C/C=C(C)/C=C/C1=C(C)CCCC1(C)C [GILRETINOL ACETATE]
Return: 5.91

Enquiry: Input COC(=O)C[C@H]1C2(C)CC34OC5(C)O[C@@]6([C@H](OC)C(OC(=O)C(C)C)[C@]7(C)C(/C(=C(/OC)C(C)C)C(=O)O[C@H]7c7ccoc7)[C@@]6(O5)[C@H](OC)[C@@]3(OC)C2OC(C)=O)[C@]14C (stereo not given in full)
Return: 6.38

Enquiry: Input CC[C@H]1/C=C/C=C/C[C@@H](C)[C@H](O)[C@@](C)(O)C(=O)[C@@H](C)[C@H](O)[C@@H](C)C(=O)[C@@H](C)[C@H](O)[C@@H](C)/C=C/C(=O)O[C@@H]2[C@H](C)[C@H](CC1)O[C@]1(CC[C@H](C)[C@H](C[C@@H](C)O)O1)[C@H]2C
Return: 6.60

Enquiry: Input CC[C@@H](C(=O)[C@@H](C)[C@@H](O)[C@H](C)CCc1ccc(C)c(O)c1C(=O)[O-])[C@H]1O[C@](CC)([C@H]2CC[C@](O)(CC)[C@H](C)O2)C[C@@H]1C.[Na+] [LASALOCID A SODIUM]
Return: 6.59

Enquiry: Input CCCCCc1c2c(cc(O)c1C(=O)O)OC(=O)c1c(cc(OC)cc1C(=O)CCCC)O2
Return: 6.40

Enquiry: Input CC(=O)O[C@@H]1CC2C(C)(C)[C@H](O)C[C@H](O)[C@@]2(C)C2CC[C@]3(C)C(=CC(=O)O[C@@H]3c3ccoc3)[C@]21C (stereo not given in full)
Return: 5.53

----------
test target: Solute carrier organic anion transporter family member 1B1 (Homo sapiens, UniProt Q9Y6L6)
Sequence (Q9Y6L6 whole entry): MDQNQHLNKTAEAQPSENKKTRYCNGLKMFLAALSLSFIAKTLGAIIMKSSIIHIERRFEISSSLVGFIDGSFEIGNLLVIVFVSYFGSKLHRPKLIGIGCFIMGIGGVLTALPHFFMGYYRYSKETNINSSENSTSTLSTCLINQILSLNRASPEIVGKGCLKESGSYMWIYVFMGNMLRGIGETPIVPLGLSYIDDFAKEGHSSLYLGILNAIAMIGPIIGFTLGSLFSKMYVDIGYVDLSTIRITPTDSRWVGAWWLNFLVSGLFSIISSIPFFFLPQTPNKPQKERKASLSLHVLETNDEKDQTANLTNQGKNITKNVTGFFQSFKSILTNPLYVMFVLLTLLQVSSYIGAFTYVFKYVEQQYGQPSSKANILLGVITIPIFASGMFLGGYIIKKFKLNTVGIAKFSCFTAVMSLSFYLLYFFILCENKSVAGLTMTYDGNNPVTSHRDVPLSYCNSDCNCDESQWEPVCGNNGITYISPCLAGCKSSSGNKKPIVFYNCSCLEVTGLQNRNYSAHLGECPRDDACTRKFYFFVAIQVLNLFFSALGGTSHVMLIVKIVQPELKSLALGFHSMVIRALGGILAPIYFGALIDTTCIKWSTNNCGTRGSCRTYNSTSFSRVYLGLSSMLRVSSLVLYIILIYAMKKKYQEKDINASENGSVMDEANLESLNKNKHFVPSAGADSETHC
protocol conditions: chinese hamster, cho, 10 µM
# residual activity per record follows
All answers are understood in %, so give the number only.

Worked cases, residual activity given:
{"compound": "CC1(C)C(=O)C=C[C@@]2(C)C1=C(O)C(=O)[C@]1(C)[C@@H]2CC[C@@]2(C)[C@H](c3ccoc3)C[C@H]3O[C@]321", "residual activity (%)": 44.73}
{"compound": "COc1ccc(CN(CCN(C)C)c2ncccn2)cc1.Cl [THONZYLAMINE HYDROCHLORIDE]", "residual activity (%)": 88.59}
{"compound": "CC(=O)OC/C=C(C)/C=C/C=C(C)/C=C/C1=C(C)CCCC1(C)C [GILRETINOL ACETATE]", "residual activity (%)": 19.44}
{"compound": "Cl.N/C(=N\\C(=O)c1nc(Cl)c(N)nc1N)NCc1ccccc1 [BENZAMIL HYDROCHLORIDE]", "residual activity (%)": 93.84}
{"compound": "COc1ccc(C(=O)O[C@H]2CC[C@@]3(C)[C@@H]4CC[C@H]5[C@]6(O)C[C@H](O)[C@@]7(O)[C@@H](CN8C[C@@H](C)CC[C@H]8[C@@]7(C)O)[C@]6(O)C[C@@]53O[C@]24O)cc1OC", "residual activity (%)": 82.28}

Now, please, on to the next compound.
Enquiry: Need residual activity, item COc1cc([C@@H]2c3cc4c(cc3[C@@H](O[C@@H]3O[C@@H]5CO[C@@H](c6cccs6)O[C@H]5[C@H](O)[C@H]3O)[C@H]3COC(=O)[C@H]23)OCO4)cc(OC)c1O [TENIPOSIDE]
Return: 25.44
